Every entry's value here was drawn from PubChem BioAssay AID1159580.

Test: chemical genetic growth profiling, strain panel (AID 1159580);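 further: tested at 20 µM; growth read once vehicle control cultures reached saturation at 30 °C; lower values mean less growth of the strain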
Settings: S. cerevisiae deletion strains, growth OD, locus YDR069C, strain doa4
The campaign covered roughly 5,500 compounds. About 2,000 (36%) were called active. Inconclusive results (about 18%) are left out. No stated cut-off is given here; in the data, active means normalized growth mostly below about 0.91 (no sharp cut-off); inconclusive means no clear call, values can overlap the other calls; inactive means mostly above about 0.92. This is one part of the list. Where a SMILES comes first, the peptide text is derived from it.
Outcome codes: True = active, False = inactive

compound=C=C(C)[C@H]1COc2cc3oc(=O)ccc3cc2O1 discretelabel=True
compound="CC(C)N(CCC(C(N)=O)(c1ccccc1)c1ccccn1)C(C)C (stereo unspecified)" discretelabel=True
compound=COc1ccc(-c2oc3cc(O[C@H]4O[C@H](CO)[C@@H](O)[C@H](O)[C@H]4O)c(OC)c(O)c3c(=O)c2OC)cc1O discretelabel=False
compound="CC(CC(O)C1OC1(C)C)[C@@H]1CCC2(C)C3=CCC4C(C)(C)C(=O)CCC4(C)C3CC[C@@]12C (stereo partly specified)" discretelabel=False
compound="CC(=O)Oc1ccc2c(c1C(C)C)CCC1C(C)(C)CCC[C@]21C (stereo partly specified)" discretelabel=False
compound=COc1ccc2ccc(=O)oc2c1 discretelabel=False
compound="CNC(C)C(O)c1ccccc1 (stereo unspecified)" discretelabel=False
compound="C[C@]12C=CC(=O)C=C1CCC1C2[C@@H](O)C[C@@]2(C)C1CC[C@]2(O)C(=O)COP(=O)(O)O (stereo partly specified)" discretelabel=False
compound=CCCCCCCCCCCC1=C(O)C(=O)C=C(O)C1=O discretelabel=True
compound="CC(=O)O[C@]1(C(C)=O)CCC2C3C=C(Cl)C4=CC(=O)[C@@H]5C[C@@H]5[C@]4(C)C3CC[C@@]21C (stereo partly specified)" discretelabel=False
compound=COc1cc(O)c2c(=O)c(O)c(-c3ccc(O)c(O)c3)oc2c1 discretelabel=True
compound="CC(=O)[C@@]1(O)CCC2C3C[C@H](C)C4=CC(=O)C=CC4(C)[C@@]3(F)[C@@H](O)C[C@@]21C (stereo partly specified)" discretelabel=False
compound="C[C@@H]1O[C@@H](OC[C@H]2OC(Oc3c(-c4ccc(O)c(O)c4)oc4cc(O)cc(O)c4c3=O)[C@H](O)[C@@H](O)[C@@H]2O)[C@H](O)[C@H](O)[C@H]1O (stereo partly specified)" discretelabel=False
compound=O=c1c(O)c(-c2ccc(O)c(O)c2)oc2c(O[C@@H]3O[C@H](CO)[C@H](O)[C@@H](O)[C@H]3O)c(O)cc(O)c12 discretelabel=False
compound="C=CC1C2=CCOC(=O)C2=COC1OC1OC(CO)C(O)C(O)C1O (stereo unspecified)" discretelabel=False
compound=COc1cccc2c(C)cc(=O)[nH]c12 discretelabel=False
compound="CC(C)c1c(O)c(-c2cc3c(c(C(C)C)c2O)CCC2C(C)(C)CCC[C@]32C)cc2c1CCC1C(C)(C)CCC[C@]21C (stereo partly specified)" discretelabel=False
compound=O=c1c(O)c(-c2ccc(O)c(O)c2)oc2cc(O)cc(O)c12 discretelabel=True
compound=O=C(O[C@@H]1Cc2c(O)cc(O)cc2O[C@@H]1c1cc(O)c(=O)c2c(O)c(O)cc([C@H]3Oc4cc(O)cc(O)c4C[C@H]3OC(=O)c3cc(O)c(O)c(O)c3)c2c1)c1cc(O)c(O)c(O)c1 discretelabel=True
compound=COc1ccc(-c2oc3c(CC=C(C)C)c(O[C@@H]4O[C@H](CO)[C@@H](O)[C@H](O)[C@H]4O)cc(O)c3c(=O)c2O[C@@H]2O[C@@H](C)[C@H](O)[C@@H](O)[C@H]2O)cc1 discretelabel=False
compound=O=C(O)C1=C[C@@H](O)[C@@H](O)[C@H](O)C1 discretelabel=False
compound="C[C@H]1O[C@H](OC2[C@@H](O)[C@@H](O)C(O)[C@H](O)[C@H]2O)[C@@H](N)C[C@@H]1N=C(N)C(=O)O (stereo partly specified)" discretelabel=False
compound="C[C@]12CCC3c4ccc(O)cc4CCC3C1CC[C@@H]2O (stereo partly specified)" discretelabel=False
compound=CC(C)[N+](C)(CCC(C(N)=O)(c1ccccc1)c1ccccc1)C(C)C discretelabel=False
compound="CC(CC(C(N)=O)(c1ccccc1)c1ccccc1)N(C)C (stereo unspecified)" discretelabel=False
compound="O=C(OC1Cc2c(O)cc(O)cc2OC1c1cc(=O)c(O)c2c(O)c(O)cc(C3Oc4cc(O)cc(O)c4CC3O)c2c1)c1cc(O)c(O)c(O)c1 (stereo unspecified)" discretelabel=True
compound="COC(=O)[C@H](Cc1ccccc1)NC(=O)[C@@H](N)CC(=O)O (H-Asp-Phe-OMe)" discretelabel=False
compound="CC(C1OC(C)(C)C(O)C1O)[C@@H]1CC[C@]2(C)C3=CCC4C(C)(C)C(=O)CC[C@]4(C)C3CC[C@@]12C (stereo partly specified)" discretelabel=False
compound=CC/C(=C(/CC)c1ccc(O)cc1)c1ccc(O)cc1 discretelabel=False
compound="CCC(c1ccc(O)cc1)C(CC)c1ccc(O)cc1 (stereo unspecified)" discretelabel=True
compound="CC1O[C@@H](Oc2c(-c3ccc(O)c(O)c3)oc3cc(O)cc(O)c3c2=O)[C@H](O)[C@H](O)[C@H]1O (stereo partly specified)" discretelabel=False
compound="CC(C)c1c(O)ccc2c1CCC1C(C)(C)CCC[C@]21C (stereo partly specified)" discretelabel=True
compound="COC(=O)[C@@]1(C)CCC[C@]2(C)c3ccc(O)c(C(C)C)c3CCC12 (stereo partly specified)" discretelabel=True
compound=O=c1c(O)c(-c2ccc(O)c(O)c2)oc2c(O)c(O)cc(O)c12 discretelabel=False
compound="C[C@@H]1CC[C@@]2(OC1)O[C@H]1CC3C4CC[C@H]5C[C@@H](O)CC[C@]5(C)C4CC[C@]3(C)[C@H]1[C@@H]2C (stereo partly specified)" discretelabel=False
compound="C[C@@H]1CC[C@@]2(NC1)O[C@H]1C[C@H]3C4CC=C5C[C@@H](O)CC[C@]5(C)C4CC[C@]3(C)C1[C@@H]2C (stereo partly specified)" discretelabel=True
